Sourced from patent US20260167623A1

biological target: CDK2 (Homo sapiens, UniProt P24941); construct: High-Throughput Measurement of Cellular Endogenous CDK2; endogenous in cells; experiment: Inhibition of CDK2: phospho-Rb (S807/811) HTRF measurement in OVCAR3 cells, 24 h; conditions: 24 h compound treatment, read-out: pRB_OVCAR3_24h
pIC50: −log10 of the molar value.
experimental-readout: pIC50

| compound | pIC50 |
| --- | --- |
| Cn1nc(N2CCC(=O)NC2=O)c2ccc(N3C4CCC3CN(CC3CCN(c5cccc(S(=O)(=O)N6CCC(Nc7ncc(Cl)cn7)CC6)c5)CC3)C4)cc21 | < 5.60 |
| Cn1nc(N2CCC(=O)NC2=O)c2ncc(C3CCN(CC4CCN(c5cccc(S(=O)(=O)N6CCC(Nc7ncc(Cl)cn7)CC6)c5)CC4)CC3)cc21 | 5.60 to 6.30 |
| Cn1c(=O)n(C2CCC(=O)NC2=O)c2cccc(C3CCN(Cc4cc(F)cc(S(=O)(=O)N5CCC(Nc6ncc(OC(F)F)cn6)CC5)c4)CC3)c21 (stereo not drawn) | 7.00 to 9.00 |
| C[C@H]1CN(CC2CCN(c3cccc(S(=O)(=O)N4CCC(Nc5ncc(Cl)cn5)CC4)c3)CC2)CCN1c1ccc2c(N3CCC(=O)NC3=O)nn(C)c2c1 | 6.30 to 7.00 |
| Cn1c(=O)n(C2CCC(=O)NC2=O)c2c(F)ccc(C3CCN(CC4CCN(c5cc(S(=O)(=O)N6CCC(Nc7ncc(Cl)cn7)CC6)ccc5C#N)CC4)CC3)c21 (stereo not drawn) | 7.00 to 9.00 |

Supply recorded pIC50 for Cn1nc(N2CCC(=O)NC2=O)c2ccc(C3CCN(Cc4cccc(S(=O)(=O)N5CCC(Nc6ncc(C(F)F)cn6)CC5)c4)CC3)cc21 here.
6.30 to 7.00

----------
biological target: CDK2 (Homo sapiens, UniProt P24941); construct: High-Throughput Measurement of Cellular Endogenous CDK2; endogenous in cells; assay: Inhibition of CDK2: phospho-Rb (S807/811) HTRF measurement in OVCAR3 cells, 24 h; settings: 24 h compound treatment, read-out: pRB_OVCAR3_24h
Let's look at some molecules and their measured IC50.

| molecule | result |
| --- | --- |
| Cn1nc(N2CCC(=O)NC2=O)c2cnc(C3CCN(CC4CCN(c5cccc(S(=O)(=O)N6CCC(Nc7ncc(Cl)cn7)CC6)c5)CC4)CC3)cc21 | 0.1 to 0.5 µM |
| Cn1nc(N2CCC(=O)NC2=O)c2ccc(C3CCN(C[C@H]4CCN(c5cccc(S(=O)(=O)N6CCC(Nc7ncc(Cl)cn7)CC6)c5)C4)CC3)cc21 | 0.1 to 0.5 µM |

We next turn to a different molecule, shown below.
Note IC50 for the molecule shown: Cn1c(=O)n(C2CCC(=O)NC2=O)c2ccc(C3CCN(CC4CCN(c5cc(S(=O)(=O)N6CCC(Nc7ncc(C(F)(F)F)cn7)CC6)ccc5C#N)CC4)CC3)cc21 (stereo not drawn)
0.001 to 0.1 µM

----------
Listing: IC50 of selected compounds
target: CDK2 (Homo sapiens, UniProt P24941); construct: High-Throughput Measurement of Cellular Endogenous CDK2; endogenous in cells; assay: Inhibition of CDK2: phospho-Rb (S807/811) HTRF measurement in OVCAR3 cells, 24 h; details: 24 h compound treatment, read-out: pRB_OVCAR3_24h

Output measured IC50 for this item: CN(C)c1cnc(NC2CCN(S(=O)(=O)c3cccc(CN4CCC(c5ccc6c(N7CCC(=O)NC7=O)nn(C)c6c5)CC4)c3)CC2)nc1
> 2500 nM

Identify measured IC50 associated with Cn1nc(N2CCC(=O)NC2=O)c2ccc(C#CCN3CCN(c4cccc(S(=O)(=O)N5CCC(Nc6ncc(C(F)(F)F)cn6)CC5)c4)CC3)cc21
500 to 2500 nM

Give a short answer stating reported IC50 for Cn1nc(N2CCC(=O)NC2=O)c2ccc(C3CCN(CCCC4CCN(S(=O)(=O)N5CCC(Nc6ncc(C(F)(F)F)cn6)CC5)CC4)CC3)cc21 .
500 to 2500 nM

Item Cn1nc(N2CCC(=O)NC2=O)c2ccc(N3CCN(CC4CCN(c5cccc(S(=O)(=O)N6CCC(Nc7ncc(Cl)cn7)CC6)c5)CC4)CC3)cc21 : provide IC50
500 to 2500 nM

Tell us which IC50 value is on record for Cn1c(=O)n(C2CCC(=O)NC2=O)c2cc(C3CCN(CC4CCN(c5cccc(S(=O)(=O)N6CCC(Nc7ncc(C(F)(F)F)cn7)CC6)c5)CC4)CC3)ccc21 (stereo not drawn)
500 to 2500 nM

Give the reported value of IC50 for this record: CC1(C)C(=O)N(C2CCC(=O)NC2=O)c2cccc(C3CCN(CC4CCN(c5cc(S(=O)(=O)N6CCC(Nc7ncc(Cl)cn7)CC6)ccc5C#N)CC4)CC3)c21 (stereo not drawn)
100 to 500 nM
